System: Saccharomyces cerevisiae;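 note: PSI is a weighted mean of sequencing reads over stability bins, variants kept only with over 10 reads, mCherry proximal and sfGFP distal, peptide attached via GGGS linker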
experimental.details: protein stability index of tFT-peptide fusion (C-terminal peptide) (PSI (0-1 scale)); higher = more stable (slower turnover)
condition.set: genetic background: wild type; temperature: 30 C
Reported protein stability index values follow for various sequences

Example results:
* GWRFGKVCGLGG | 0.726
* RPTGHAPSRALT | 0.659
* CFFGFRAGLFLG | 0.214

[ask] State the recorded protein stability index for this entry: PPSLCPPPSLLF
[reply] 0.733

[ask] State the recorded protein stability index for this entry: RKKREKNKKRKE
[reply] 0.695

[ask] State the recorded protein stability index for this entry: IVLAGVCGGVVG
[reply] 0.733

[ask] State the recorded protein stability index for this entry: ASWRYMFPVTLG
[reply] 0.367

[ask] State the recorded protein stability index for this entry: PFLSPPPPSTPP
[reply] 0.704

These measurements were taken from the supplement of paper PMC10724198.
